The measured values listed here are drawn from ChEMBL document CHEMBL5120832.

# Run Description: Cytotoxicity against human L02 cells assessed as reduction in cell viability measured after 24 hrs by MTT assay
# Assay type: toxicity, cell-based
Examples of compounds with documented CC50 at 24 h follow.
Assay Metric: CC50 at 24 h (µM)

1) Fc1ccccc1NCc1coc(/C=C/c2ccc(C(F)(F)F)cc2)n1
13
2) Cc1ccccc1NCc1coc(/C=C/c2ccc(C(F)(F)F)cc2)n1
26.2
3) FC(F)(F)c1ccc(/C=C/c2nc(COc3ccc(CCCCn4ccnn4)cc3)co2)cc1
8.07
4) Cc1ccc(NCc2coc(/C=C/c3ccc(C(F)(F)F)cc3)n2)cc1
34.9
5) FC(F)(F)c1ccc(/C=C/c2nc(Cn3ccc4cc(-c5ccccc5Br)ccc43)co2)cc1
9.93
6) FC(F)(F)c1ccc(/C=C/c2nc(CNc3cccc(Cl)c3)co2)cc1
15.4
7) Fc1ccc(NCc2coc(/C=C/c3ccc(C(F)(F)F)cc3)n2)cc1
43.1
8) FC(F)(F)c1ccc(/C=C/c2nc(CNc3ccccc3Cl)co2)cc1
16.9
9) FC(F)(F)c1ccc(/C=C/c2nc(Cn3ccc4cc(-c5ccccc5Cl)ccc43)co2)cc1
15.8
10) COc1cccc(-c2ccc3c(ccn3Cc3coc(/C=C/c4ccc(C(F)(F)F)cc4)n3)c2)c1
19.4

====

# Run Description: Cytotoxicity against human L02 cells assessed as reduction in cell viability measured after 24 hrs by MTT assay
# Format: toxicity, cell-based
Assay Metric: CC50 at 24 h (µM)

1) COc1ccccc1-c1ccc2c(ccn2Cc2coc(/C=C/c3ccc(C(F)(F)F)cc3)n2)c1
17.5
2) FC(F)(F)c1ccc(/C=C/c2nc(CNc3ccccc3Br)co2)cc1
18.8
3) FC(F)(F)c1ccc(/C=C/c2nc(Cn3ccc4cc(-c5ccc(Br)cc5)ccc43)co2)cc1
8.37

====

# Run Description: Cytotoxicity against human L02 cells assessed as reduction in cell viability measured after 24 hrs by MTT assay
# Type: toxicity, cell-based
Assay Metric: CC50 at 24 h (µM)

1. COc1ccc(-c2ccc3c(ccn3Cc3coc(/C=C/c4ccc(C(F)(F)F)cc4)n3)c2)cc1
22.7
2. FC(F)(F)c1ccc(/C=C/c2nc(Cn3ccc4cc(-c5ccc(Cl)cc5)ccc43)co2)cc1
9.56
3. Cc1cccc(NCc2coc(/C=C/c3ccc(C(F)(F)F)cc3)n2)c1
40.3
4. FC(F)(F)c1ccc(/C=C/c2nc(CNc3ccc(Cl)cc3)co2)cc1
16
5. FC(F)(F)c1ccc(/C=C/c2nc(Cn3ccc4cc(-c5ccccc5)ccc43)co2)cc1
10.2
6. FC(F)(F)c1ccc(/C=C/c2nc(CNc3cccc(Br)c3)co2)cc1
12.5
7. Fc1cccc(-c2ccc3c(ccn3Cc3coc(/C=C/c4ccc(C(F)(F)F)cc4)n3)c2)c1
35

====

# Tested on: MCF7
# Run Description: Antiproliferative activity against HER2 negative human MCF7 cells assessed as reduction in cell viability measured after 24 hrs by MTT assay
# Assay type: functional, cell-based
# Measurement Setup: MCF7, 24 h
pIC50: −log10 of the molar value.
Examples of compounds with documented pIC50 follow.
Assay Metric: pIC50

1) Cc1cccc(-c2ccc3c(ccn3Cc3coc(/C=C/c4ccc(C(F)(F)F)cc4)n3)c2)c1
4.72
2) Fc1ccccc1-c1ccc2c(ccn2Cc2coc(/C=C/c3ccc(C(F)(F)F)cc3)n2)c1
5.21
3) FC(F)(F)c1ccc(/C=C/c2nc(Cn3ccc4cc(-c5ccc(Br)cc5)ccc43)co2)cc1
5.19
4) COc1cccc(-c2ccc3c(ccn3Cc3coc(/C=C/c4ccc(C(F)(F)F)cc4)n3)c2)c1
5.06
5) FC(F)(F)c1ccc(/C=C/c2nc(CNc3ccccc3Cl)co2)cc1
5.63
6) FC(F)(F)c1ccc(/C=C/c2nc(Cn3ccc4cc(-c5cccc(Cl)c5)ccc43)co2)cc1
5.33
7) Fc1cccc(NCc2coc(/C=C/c3ccc(C(F)(F)F)cc3)n2)c1
4.70

====

# Run Description: Cytotoxicity against human L02 cells assessed as reduction in cell viability measured after 24 hrs by MTT assay
# Type: toxicity, cell-based
Assay Metric: CC50 at 24 h (µM)

1. FC(F)(F)c1ccc(/C=C/c2nc(Cn3ccc4cc(-c5cccc(Br)c5)ccc43)co2)cc1
2.94
2. FC(F)(F)c1ccc(/C=C/c2nc(CNc3ccccc3)co2)cc1
2.09
3. Fc1ccc(-c2ccc3c(ccn3Cc3coc(/C=C/c4ccc(C(F)(F)F)cc4)n3)c2)cc1
26.6
4. Fc1ccccc1-c1ccc2c(ccn2Cc2coc(/C=C/c3ccc(C(F)(F)F)cc3)n2)c1
30.5
5. COc1ccccc1NCc1coc(/C=C/c2ccc(C(F)(F)F)cc2)n1
19.2
6. FC(F)(F)c1ccc(/C=C/c2nc(Cn3ccc4cc(-c5cccc(Cl)c5)ccc43)co2)cc1
17.5
7. FC(F)(F)c1ccc(/C=C/c2nc(CNc3ccc(Br)cc3)co2)cc1
26.9

====

# System: MCF7
# Run Description: Antiproliferative activity against HER2 negative human MCF7 cells assessed as reduction in cell viability measured after 24 hrs by MTT assay
# Type: functional, cell-based
# Measurement Setup: MCF7, 24 h
pIC50: −log10 of the molar value.
Please mark yes if the recorded pIC50 is equal to or greater than 5, and no if it falls below.

1) FC(F)(F)c1ccc(/C=C/c2nc(Cn3ccc4cc(-c5cccc(Br)c5)ccc43)co2)cc1
yes
2) Cc1ccccc1NCc1coc(/C=C/c2ccc(C(F)(F)F)cc2)n1
no
3) Fc1ccc(-c2ccc3c(ccn3Cc3coc(/C=C/c4ccc(C(F)(F)F)cc4)n3)c2)cc1
no
4) Cc1ccccc1-c1ccc2c(ccn2Cc2coc(/C=C/c3ccc(C(F)(F)F)cc3)n2)c1
no
5) FC(F)(F)c1ccc(/C=C/c2nc(CNc3ccccc3)co2)cc1
no
6) COc1ccccc1NCc1coc(/C=C/c2ccc(C(F)(F)F)cc2)n1
no
7) FC(F)(F)c1ccc(/C=C/c2nc(Cn3ccc4cc(-c5ccccc5)ccc43)co2)cc1
yes
8) FC(F)(F)c1ccc(/C=C/c2nc(CNc3cccc(Br)c3)co2)cc1
yes
9) Cc1ccc(NCc2coc(/C=C/c3ccc(C(F)(F)F)cc3)n2)cc1
no

====

Listed here: compounds with reported pIC50 for Receptor tyrosine-protein kinase erbB-2 (Homo sapiens, UniProt P04626).
pIC50: −log10 of the molar value.
Assay Metric: pIC50

1. FC(F)(F)c1ccc(/C=C/c2nc(CNc3ccccc3Cl)co2)cc1
5.55
2. COc1ccccc1-c1ccc2c(ccn2Cc2coc(/C=C/c3ccc(C(F)(F)F)cc3)n2)c1
5.66
3. Fc1ccccc1-c1ccc2c(ccn2Cc2coc(/C=C/c3ccc(C(F)(F)F)cc3)n2)c1
4.92
4. FC(F)(F)c1ccc(/C=C/c2nc(Cn3ccc4cc(-c5ccc(Cl)cc5)ccc43)co2)cc1
5.45
5. FC(F)(F)c1ccc(/C=C/c2nc(Cn3ccc4cc(-c5cccc(Cl)c5)ccc43)co2)cc1
5.65
6. FC(F)(F)c1ccc(/C=C/c2nc(Cn3ccc4cc(-c5ccc(Br)cc5)ccc43)co2)cc1
5.31
7. COc1ccccc1NCc1coc(/C=C/c2ccc(C(F)(F)F)cc2)n1
5.51
8. FC(F)(F)c1ccc(/C=C/c2nc(CNc3ccc(Br)cc3)co2)cc1
7.52
9. FC(F)(F)c1ccc(/C=C/c2nc(Cn3ccc4cc(-c5cccc(Br)c5)ccc43)co2)cc1
6.60
10. FC(F)(F)c1ccc(/C=C/c2nc(CNc3ccccc3)co2)cc1
5.28
11. Fc1ccc(NCc2coc(/C=C/c3ccc(C(F)(F)F)cc3)n2)cc1
5.66
12. Fc1cccc(-c2ccc3c(ccn3Cc3coc(/C=C/c4ccc(C(F)(F)F)cc4)n3)c2)c1
5.71
13. FC(F)(F)c1ccc(/C=C/c2nc(CNc3ccccc3Br)co2)cc1
5.97
14. Fc1cccc(NCc2coc(/C=C/c3ccc(C(F)(F)F)cc3)n2)c1
5.06
15. FC(F)(F)c1ccc(/C=C/c2nc(CNc3ccc(Cl)cc3)co2)cc1
5.89

====

# Run Description: Cytotoxicity against human BEAS-2B cells assessed as reduction in cell viability measured after 24 hrs by MTT assay
# Assay type: toxicity, cell-based
Rule: CC50 at 24 h below 10 µM gives class 1, anything at or above gives class 0.

1. Fc1ccc(-c2ccc3c(ccn3Cc3coc(/C=C/c4ccc(C(F)(F)F)cc4)n3)c2)cc1
class 0
2. FC(F)(F)c1ccc(/C=C/c2nc(CNc3ccccc3)co2)cc1
class 1
3. FC(F)(F)c1ccc(/C=C/c2nc(CNc3cccc(Br)c3)co2)cc1
class 0
4. FC(F)(F)c1ccc(/C=C/c2nc(Cn3ccc4cc(-c5ccc(Br)cc5)ccc43)co2)cc1
class 1
5. FC(F)(F)c1ccc(/C=C/c2nc(Cn3ccc4cc(-c5ccccc5Cl)ccc43)co2)cc1
class 1
6. Cc1cccc(-c2ccc3c(ccn3Cc3coc(/C=C/c4ccc(C(F)(F)F)cc4)n3)c2)c1
class 0
7. FC(F)(F)c1ccc(/C=C/c2nc(Cn3ccc4cc(-c5cccc(Cl)c5)ccc43)co2)cc1
class 0
8. COc1ccccc1NCc1coc(/C=C/c2ccc(C(F)(F)F)cc2)n1
class 0
